Target: T1, Cyk3, Q07533
T1 sequence (Q07533 1-83, looked up): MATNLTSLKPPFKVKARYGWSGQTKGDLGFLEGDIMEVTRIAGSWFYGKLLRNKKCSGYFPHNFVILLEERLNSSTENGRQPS
Experiment: SPOT array
Settings: median of control spots 1451
EXPERIMENTAL ENDPOINT: SPOT intensity

Example binders with recorded SPOT intensity:
>  <BINDER>
FHLNPKRSAVLYDRP

>  <RECORDED MEASUREMENT>
0

$$$$
>  <BINDER>
KTKQQKPAIPQKKSF

>  <RECORDED MEASUREMENT>
0

$$$$
>  <BINDER>
APERAVPILPPRNNV

>  <RECORDED MEASUREMENT>
0

$$$$
>  <BINDER>
NAGIRPKFILALNDE

>  <RECORDED MEASUREMENT>
1

$$$$
>  <BINDER>
STPQTMRQAPKRPDA

>  <RECORDED MEASUREMENT>
1

$$$$

A = RTIRKLPLMSLSEYF
B = SRYRRPLTLLLLKPF
Which value of SPOT intensity is numerically greater: that of A or that of B ? # answer = label of selected item
B

Data provenance: paper PMC2756588
